- Tested On: cloned human dopamine D3 receptors (Homo sapiens, UniProt P35462)
- Construct: expressed in transfected cells
- Sequence (P35462 whole entry): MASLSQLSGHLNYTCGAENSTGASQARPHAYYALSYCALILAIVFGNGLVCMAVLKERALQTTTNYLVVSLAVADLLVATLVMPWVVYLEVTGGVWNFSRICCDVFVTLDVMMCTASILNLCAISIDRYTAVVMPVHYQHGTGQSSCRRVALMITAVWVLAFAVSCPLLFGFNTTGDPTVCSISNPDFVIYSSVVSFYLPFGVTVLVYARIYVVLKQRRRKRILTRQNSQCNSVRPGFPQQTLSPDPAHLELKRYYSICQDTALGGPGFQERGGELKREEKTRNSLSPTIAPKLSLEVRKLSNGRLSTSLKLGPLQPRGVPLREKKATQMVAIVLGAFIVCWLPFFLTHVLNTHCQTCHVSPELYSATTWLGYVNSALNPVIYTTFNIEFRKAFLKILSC
- Method Notes: [N-Methyl-3H]Spiroperidol binding to cloned human dopamine D3 receptors
- Measurement Parameters: Table III; read-out: d3Ki
Reported Ki values for the following compounds.
Metric: Ki (nM)

>>> quantitative_result("COc1cc(Cl)c(NC(=O)NCCCCN2CCC(c3noc4ccsc34)CC2)c(OC)c1 [compound 816770]")
28.2
>>> quantitative_result("O=C(NCCCCN1CCC(c2noc3ccsc23)CC1)Nc1c(F)cccc1F [compound 816878]")
33.8
>>> quantitative_result("O=C(NCCCCN1CCC(c2noc3ccsc23)CC1)NCc1ccc(Cl)cc1Cl")
24.2

====

- Tested On: cloned human dopamine D3 receptors (Homo sapiens, UniProt P35462)
- Construct: expressed in transfected cells
- Method Notes: [N-Methyl-3H]Spiroperidol binding to cloned human dopamine D3 receptors
- Measurement Parameters: Table III; read-out: d3Ki
One threshold, 50 nM, splits the recorded Ki values: lower ones are yes, equal or higher ones are no.

>>> assigned_label("O=C(NCCCCN1CCC(c2noc3ccsc23)CC1)Nc1c(F)cccc1F [compound 816766]")
"yes"
>>> assigned_label("COc1ccccc1NC(=O)NCCCCN1CCN(c2csc3cc(C(F)(F)F)ccc23)CC1")
"yes"
>>> assigned_label("CCOC(=O)c1ccccc1NC(=O)NCCCCN1CCC(c2noc3ccsc23)CC1")
"no"
>>> assigned_label("CCOc1ccccc1NC(=O)NCCCCN1CCC(c2noc3ccsc23)CC1 [compound 816876]")
"yes"
>>> assigned_label("O=C(NCCCCN1CCC(c2noc3ccsc23)CC1)Nc1ccc(OC(F)(F)F)cc1")
"no"
>>> assigned_label("O=C(NCCCCN1CCC(c2noc3ccsc23)CC1)Nc1ccc(Cl)cc1Cl [compound 816769]")
"no"
>>> assigned_label("Cc1ccc(NC(=O)NCCCCN2CCN(c3c(Cl)sc4cc(F)ccc34)CC2)cc1")
"yes"
